Reference source: the supplement of paper PMC6522484

Tested on: DLD1
Experiment: TCF/Wnt firefly luciferase reporter signal relative to plate median (fraction of plate median); higher = higher Wnt reporter signal
Settings: 5 µM; treatment time 24 h; reporter: 7TFP
A collection of compounds and their measured TCF/Wnt firefly luciferase reporter signal
Note: the reply should be a number with no unit written.

Here's what some known entries look like.
compound	tested target	result
CCC1(C2=NCCN2)Cc2ccccc2O1 (stereo not drawn)	DLD1	1.01
O=C1C(Cl)=C(Cl)C(=O)C(Cl)=C1Cl	DLD1	0.997
COc1cc2c(cc1-c1cc3cc4ccoc4cc3oc1=O)OCO2	DLD1	0.973
CN1[C@@H]2C[C@@H](OC(=O)[C@H](CO)c3ccccc3)C[C@H]1[C@@H]1O[C@@H]12	DLD1	1.02
COC1=C[C@]23CCCN2CCc2cc4c(cc2[C@@H]3[C@@H]1O)OCO4	DLD1	0.997

Lookup: May I ask what TCF/Wnt firefly luciferase reporter signal has been recorded for `COP(=S)(OC)SCn1nnc2ccccc2c1=O` ?
Found: 0.991

Lookup: Please look up its TCF/Wnt firefly luciferase reporter signal: `Cc1nccc2c1[nH]c1cc(O)ccc12`
Found: 1.01

Lookup: Quick check: TCF/Wnt firefly luciferase reporter signal of `O=c1[nH]c2ccccc2n1C1CCN(CCCC(c2ccc(F)cc2)c2ccc(F)cc2)CC1` ?
Found: 1.02

----------
Tested on: SW480
Experiment: TCF/Wnt firefly luciferase reporter signal relative to plate median (fraction of plate median); higher = higher Wnt reporter signal
Conditions: 5 µM; treatment time 24 h; reporter: 7TFP
# label = y if TCF/Wnt firefly luciferase reporter signal >= 1 else n

Illustrative cases are given below, each with its answer.
molecule	label value
O=c1[nH]c2ccccc2n1C1CCN(CCCC(c2ccc(F)cc2)c2ccc(F)cc2)CC1	n
COC(=O)C(c1ccccc1)C1CCCCN1 (configuration not stated)	y
CCNc1nc(Cl)nc(NCC)n1	n
C=C(C)[C@H]1Cc2c(ccc3c(=O)c4c(oc23)COc2cc(OC)c(OC)cc2-4)O1	n

Shifting focus to the molecule that follows.
Lookup: Reported TCF/Wnt firefly luciferase reporter signal reaches at least 1 for `C/C=C(/C)C(=O)O[C@H]1CC[C@@]2(C)[C@@H]3CC[C@H]4[C@]5(O)C[C@H](O)[C@@]6(O)[C@@H](CN7C[C@@H](C)CC[C@H]7[C@@]6(C)O)[C@]5(O)C[C@]42O[C@]13O` ?
Found: y

----------
Reported TCF/Wnt firefly luciferase reporter signal values for the following molecules.
Test system: DLD1
Assay: TCF/Wnt firefly luciferase reporter signal relative to plate median (fraction of plate median); higher = higher Wnt reporter signal
Conditions: 5 µM; treatment time 24 h; reporter: 7TFP
No unit in the answer, please; the number alone is enough.

Field: example entries. Status: answers known.
Cc1ncc(CNC(=O)N(CCCl)N=O)c(N)n1 1.01
CNc1ccccc1C(=O)O 0.931
COc1cc2c(cc1O)C[C@H]1c3c(cc(O)c(OC)c3-2)CCN1C 0.882

Lookup: Please report the recorded TCF/Wnt firefly luciferase reporter signal for `CC1=C2C(=CO[C@H](C)[C@H]2C)C(O)=C(C(=O)O)C1=O` .
Found: 0.861

----------
Tested on: DLD1
Experiment: TCF/Wnt firefly luciferase reporter signal relative to plate median (fraction of plate median); higher = higher Wnt reporter signal
Settings: 5 µM; treatment time 24 h; reporter: 7TFP
attribute measured: TCF/Wnt firefly luciferase reporter signal
Reply: number alone, nothing else.

molecule	result
O=[N+]([O-])O[C@@H]1CO[C@H]2[C@@H]1OC[C@@H]2O	0.989
CC1CC(Cl)CCC1C(=O)OC(C)(C)C (stereo unspecified)	0.976

Lookup: Looking for the measured TCF/Wnt firefly luciferase reporter signal of `COS(C)(=O)=O` , can you help?
Found: 0.98

Lookup: Give the measured TCF/Wnt firefly luciferase reporter signal of COc1ccc(O)c2c(=O)c3c(OC)cc4c(c3oc12)C1C=COC1O4 (stereo unspecified) .
Found: 1.01

Lookup: Quick one: TCF/Wnt firefly luciferase reporter signal of `C[N+]1(C)[C@@H]2C[C@@H](OC(=O)[C@H](CO)c3ccccc3)C[C@H]1[C@@H]1O[C@@H]12` ?
Found: 0.989

Lookup: Returns the measured TCF/Wnt firefly luciferase reporter signal for the input molecule. Input: `NC(=O)c1ccc(N)nc1`
Found: 1.01
